- tested.on: NMDA receptor subunits 1A/2C (Rattus norvegicus, UniProt P35439+Q00961)
- Construct: expressed in transfected cells; host or cells: Xenopus laevis oocytes (cRNA injection; clones from Dr. P. H. Seeburg)
- Sequence (Q00961 20-1237, other chains not shown): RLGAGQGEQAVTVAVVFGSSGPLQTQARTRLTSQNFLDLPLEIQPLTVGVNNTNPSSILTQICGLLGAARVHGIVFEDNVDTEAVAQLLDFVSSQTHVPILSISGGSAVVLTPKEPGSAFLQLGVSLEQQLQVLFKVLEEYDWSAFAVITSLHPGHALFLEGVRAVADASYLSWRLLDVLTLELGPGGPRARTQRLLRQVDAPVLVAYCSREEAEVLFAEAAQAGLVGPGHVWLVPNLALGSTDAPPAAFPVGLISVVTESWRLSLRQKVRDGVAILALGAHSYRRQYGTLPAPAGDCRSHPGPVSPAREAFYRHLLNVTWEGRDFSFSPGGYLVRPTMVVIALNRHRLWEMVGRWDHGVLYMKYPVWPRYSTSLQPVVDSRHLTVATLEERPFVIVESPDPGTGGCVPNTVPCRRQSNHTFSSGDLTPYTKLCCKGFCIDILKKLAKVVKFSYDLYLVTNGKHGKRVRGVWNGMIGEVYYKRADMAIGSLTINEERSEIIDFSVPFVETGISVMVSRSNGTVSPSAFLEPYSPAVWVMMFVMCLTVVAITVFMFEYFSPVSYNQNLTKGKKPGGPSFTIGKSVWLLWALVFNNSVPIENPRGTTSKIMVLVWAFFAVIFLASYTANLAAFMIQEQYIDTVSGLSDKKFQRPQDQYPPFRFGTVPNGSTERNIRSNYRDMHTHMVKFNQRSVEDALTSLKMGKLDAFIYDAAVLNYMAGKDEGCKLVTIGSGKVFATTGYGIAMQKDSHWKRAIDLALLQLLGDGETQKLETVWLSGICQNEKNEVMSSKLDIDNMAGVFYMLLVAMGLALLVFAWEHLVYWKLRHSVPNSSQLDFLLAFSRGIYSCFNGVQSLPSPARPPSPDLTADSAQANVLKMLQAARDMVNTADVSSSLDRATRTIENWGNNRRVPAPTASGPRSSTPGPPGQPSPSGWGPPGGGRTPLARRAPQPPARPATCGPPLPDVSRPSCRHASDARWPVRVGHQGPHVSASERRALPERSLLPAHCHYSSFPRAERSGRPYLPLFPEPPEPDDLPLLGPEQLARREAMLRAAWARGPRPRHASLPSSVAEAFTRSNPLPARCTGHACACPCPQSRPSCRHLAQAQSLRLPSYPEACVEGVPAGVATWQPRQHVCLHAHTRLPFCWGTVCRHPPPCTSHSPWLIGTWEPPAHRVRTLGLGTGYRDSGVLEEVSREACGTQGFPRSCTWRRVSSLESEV
- experiment: Electrophysiological assay at NMDA receptor subunits expressed in Xenopus oocytes, 1A/2C
- Assay type: cell-based
- experimental.parameters: Xenopus oocytes; glutamate 100 μm and glycine 1-100 μm; read-out: Subunits IC50, 1A/2C
Counter-ions that a name gives are not always drawn.
reported.property: pIC50
Kindly note that pIC50 refers to -log10 of the concentration in mol/L and answer with the value alone.

Query: Which pIC50 reading was recorded for the compound Oc1ccc(OCCN2CCC(Cc3ccc(C(F)(F)F)cc3)CC2)cc1 [Ex. 129, hydrochloride] ?
Result: 3.77

Query: Cool, now Oc1ccc(OCCN2CCC(Cc3cccc(F)c3)CC2)cc1 [Ex. 112, hydrochloride]
Result: 3.55

Query: Cool, now Oc1ccc(CCCN2CCC(Cc3ccc(Cl)cc3)CC2)cc1 [Ex. 107, hydrochloride]
Result: 3.57

Query: Cool, now Oc1ccc(CCCN2CCC(Cc3ccccc3)CC2)cc1 [Ex. 106, hydrochloride]
Result: 3.59

Query: Cool, now Oc1ccc(C2CCN(CCCCc3ccccc3)CC2)cc1
Result: 3.52

Query: Cool, now Fc1ccc(OCCN2CCC(Cc3ccc(Cl)cc3)CC2)cc1 [Ex. 25, hydrobromide]
Result: 4.10

Query: Cool, now c1ccc(CC2CCN(CCOc3ccc4c(c3)OCO4)CC2)cc1 [Ex. 148, hydrochloride]
Result: 3.87

* * *

- tested.on: NMDA receptor subunits 1A/2B (Rattus norvegicus, UniProt P35439+Q00960)
- Construct: expressed in transfected cells; host or cells: Xenopus laevis oocytes (cRNA injection; clones from Dr. P. H. Seeburg)
- Sequence (Q00960 27-1482, other chains not shown): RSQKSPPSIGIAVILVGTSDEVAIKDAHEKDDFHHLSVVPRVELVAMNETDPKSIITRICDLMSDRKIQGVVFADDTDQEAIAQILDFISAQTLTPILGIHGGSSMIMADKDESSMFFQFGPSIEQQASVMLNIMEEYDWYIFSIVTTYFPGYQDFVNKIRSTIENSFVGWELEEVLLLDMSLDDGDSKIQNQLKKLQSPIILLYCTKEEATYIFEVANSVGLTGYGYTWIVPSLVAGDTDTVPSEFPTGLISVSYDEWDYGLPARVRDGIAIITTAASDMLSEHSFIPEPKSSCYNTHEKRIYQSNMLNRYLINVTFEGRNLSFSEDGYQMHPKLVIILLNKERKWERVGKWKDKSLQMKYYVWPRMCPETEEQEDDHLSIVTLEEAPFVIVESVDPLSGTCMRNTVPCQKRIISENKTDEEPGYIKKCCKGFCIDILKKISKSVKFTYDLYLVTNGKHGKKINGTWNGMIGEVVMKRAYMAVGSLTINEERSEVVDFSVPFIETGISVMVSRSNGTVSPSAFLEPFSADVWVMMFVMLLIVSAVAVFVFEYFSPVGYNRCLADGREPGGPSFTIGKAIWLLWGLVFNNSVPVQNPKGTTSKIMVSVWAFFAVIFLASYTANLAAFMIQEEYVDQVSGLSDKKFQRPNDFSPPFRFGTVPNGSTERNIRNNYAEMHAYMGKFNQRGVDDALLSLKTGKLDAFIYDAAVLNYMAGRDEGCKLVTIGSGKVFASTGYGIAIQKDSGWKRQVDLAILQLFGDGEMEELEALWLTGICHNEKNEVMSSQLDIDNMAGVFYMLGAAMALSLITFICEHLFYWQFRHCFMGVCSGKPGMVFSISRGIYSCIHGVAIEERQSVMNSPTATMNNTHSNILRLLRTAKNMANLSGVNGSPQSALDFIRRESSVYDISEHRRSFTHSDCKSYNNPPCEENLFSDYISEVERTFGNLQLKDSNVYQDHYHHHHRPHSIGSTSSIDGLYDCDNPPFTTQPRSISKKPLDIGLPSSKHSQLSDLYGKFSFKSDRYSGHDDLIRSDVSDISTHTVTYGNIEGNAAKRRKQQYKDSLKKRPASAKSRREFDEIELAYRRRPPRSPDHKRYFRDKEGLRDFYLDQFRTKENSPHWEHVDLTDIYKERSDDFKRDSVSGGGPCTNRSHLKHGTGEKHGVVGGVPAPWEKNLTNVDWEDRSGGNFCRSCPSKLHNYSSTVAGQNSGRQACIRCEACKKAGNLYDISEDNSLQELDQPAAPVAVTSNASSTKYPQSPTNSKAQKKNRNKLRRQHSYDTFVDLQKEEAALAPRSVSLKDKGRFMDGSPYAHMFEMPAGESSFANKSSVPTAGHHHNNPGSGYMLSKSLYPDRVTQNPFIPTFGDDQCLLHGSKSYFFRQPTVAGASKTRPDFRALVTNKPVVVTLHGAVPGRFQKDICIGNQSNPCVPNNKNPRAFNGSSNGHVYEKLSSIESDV
- experiment: Electrophysiological assay at NMDA receptor subunits expressed in Xenopus oocytes, 1A/2B
- Type: cell-based
- experimental.parameters: Xenopus oocytes; glutamate 100 μm and glycine 1-100 μm; read-out: Subunits IC50, 1A/2B
Counter-ions that a name gives are not always drawn.
For each entry below, report its pIC50 value.
Kindly note that pIC50 refers to -log10 of the concentration in mol/L and answer with the value alone.

Query: What pIC50 appears in the records for this molecule with NMDA receptor subunits 1A/2B (Rattus norvegicus, UniProt P35439+Q00960)? c1ccc(CC2CCN(CCCOc3ccccc3)CC2)cc1
Result: 5.96

Query: Cool, now Oc1ccc2cc(OCCN3CCC(Cc4ccc(F)cc4)CC3)ccc2c1
Result: 7.00

Query: Cool, now Nc1ccc(OCCN2CCC(Cc3ccccc3)CC2)cc1[N+](=O)[O-]
Result: 5.96

Query: Cool, now Fc1cccc(OCCCN2CCC(Cc3ccc(Cl)cc3)CC2)c1 [Ex. 31, hydrobromide]
Result: 6.05

Query: Cool, now S=c1[nH]c2ccc(OCCN3CCC(Cc4ccccc4)CC3)cc2[nH]1
Result: 7.40

Query: Cool, now Cc1ccc(CC2CCN(CCOc3ccc(O)c(F)c3)CC2)c(F)c1 [Ex. 149, hydrochloride]
Result: 7.40

Query: Cool, now c1ccc(CCCN2CCC(Cc3ccccc3)CC2)cc1 [Ex. 84, hydrochloride]
Result: 5.66

* * *

- tested.on: NMDA receptor subunits 1A/2A (Rattus norvegicus, UniProt P35439+Q00959)
- Construct: clones from Dr. P. H. Seeburg)
- Sequence (Q00959 20-1464 limits assumed, other chains not shown): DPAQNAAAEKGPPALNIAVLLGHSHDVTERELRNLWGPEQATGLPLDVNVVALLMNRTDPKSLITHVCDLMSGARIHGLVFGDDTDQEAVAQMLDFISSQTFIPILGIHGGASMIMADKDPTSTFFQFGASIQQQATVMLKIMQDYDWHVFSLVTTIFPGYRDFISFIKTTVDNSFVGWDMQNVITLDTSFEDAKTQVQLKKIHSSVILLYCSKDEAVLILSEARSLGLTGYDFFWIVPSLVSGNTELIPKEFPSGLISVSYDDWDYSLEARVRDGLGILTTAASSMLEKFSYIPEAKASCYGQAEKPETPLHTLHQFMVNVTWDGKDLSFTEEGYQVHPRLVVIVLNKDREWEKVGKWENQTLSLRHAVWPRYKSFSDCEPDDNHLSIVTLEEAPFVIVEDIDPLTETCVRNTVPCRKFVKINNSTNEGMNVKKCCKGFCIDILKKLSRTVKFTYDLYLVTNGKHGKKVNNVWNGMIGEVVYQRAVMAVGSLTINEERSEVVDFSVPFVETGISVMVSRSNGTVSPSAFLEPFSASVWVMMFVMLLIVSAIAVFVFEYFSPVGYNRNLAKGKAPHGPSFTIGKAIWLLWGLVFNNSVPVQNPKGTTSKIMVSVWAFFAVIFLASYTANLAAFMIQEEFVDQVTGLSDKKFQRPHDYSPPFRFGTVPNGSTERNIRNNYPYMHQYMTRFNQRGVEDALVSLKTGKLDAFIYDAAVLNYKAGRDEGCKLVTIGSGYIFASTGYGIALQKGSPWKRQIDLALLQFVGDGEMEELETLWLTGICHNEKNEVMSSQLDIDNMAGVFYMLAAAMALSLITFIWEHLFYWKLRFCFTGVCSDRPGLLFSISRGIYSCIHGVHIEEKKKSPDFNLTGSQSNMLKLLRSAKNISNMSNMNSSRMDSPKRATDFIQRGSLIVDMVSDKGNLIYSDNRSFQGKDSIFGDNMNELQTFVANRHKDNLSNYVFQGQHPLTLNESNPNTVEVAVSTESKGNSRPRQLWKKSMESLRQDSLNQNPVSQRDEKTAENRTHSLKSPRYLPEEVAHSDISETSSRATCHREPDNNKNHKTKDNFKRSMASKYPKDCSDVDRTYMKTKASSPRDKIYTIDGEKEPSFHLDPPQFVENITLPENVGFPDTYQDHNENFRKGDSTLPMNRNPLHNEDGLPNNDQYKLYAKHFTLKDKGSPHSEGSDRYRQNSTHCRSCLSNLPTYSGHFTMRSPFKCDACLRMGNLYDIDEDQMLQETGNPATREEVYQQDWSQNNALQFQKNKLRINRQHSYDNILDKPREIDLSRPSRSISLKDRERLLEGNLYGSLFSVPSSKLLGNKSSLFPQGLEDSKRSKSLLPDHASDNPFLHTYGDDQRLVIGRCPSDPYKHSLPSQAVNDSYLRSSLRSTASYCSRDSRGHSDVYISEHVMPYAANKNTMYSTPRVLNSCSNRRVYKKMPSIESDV
- experiment: Electrophysiological assay at NMDA receptor subunits expressed in Xenopus oocytes, 1A/2A
- experimental.parameters: glutamate 100 μm and glycine 1-100 μm
Where a name gives a salt, the structure may show the parent alone.
For each entry below, report its IC50 value.

Query: Which IC50 reading was recorded for the molecule Cc1cc(OCCN2CCC(Cc3ccc(F)cc3)CC2)ccc1O [Ex. 152, hydrochloride] ?
Result: 90 µM

Query: Cool, now c1ccc(CC2CCN(CCSc3ccccc3)CC2)cc1 [Ex. 144, hydrochloride]
Result: > 300 µM

Query: Cool, now Cc1ccc(CC2CCN(CCOc3ccc4cc(O)ccc4c3)CC2)cc1 [Ex. 192]
Result: > 300 µM

Query: Cool, now Cl.Oc1ccc(OCCN2CCC(Cc3ccccc3)CC2)cc1 [Ex. 99, hydrochloride]
Result: > 300 µM

* * *

For each entry below, report its IC50 value.
- tested.on: NMDA receptor subunits 1A/2C (Rattus norvegicus, UniProt P35439+Q00961)
- Construct: expressed in transfected cells; host or cells: Xenopus laevis oocytes (cRNA injection; clones from Dr. P. H. Seeburg)
- experiment: Electrophysiological assay at NMDA receptor subunits expressed in Xenopus oocytes, 1A/2C
- Assay type: cell-based
- experimental.parameters: Xenopus oocytes; glutamate 100 μm and glycine 1-100 μm; read-out: Subunits IC50, 1A/2C
Where a name gives a salt, the structure may show the parent alone.

Query: Which IC50 reading was recorded for the molecule Oc1ccc2cc(OCCN3CCC(Cc4ccc(F)cc4)CC3)ccc2c1 [Ex. 191] ?
Result: > 300 µM

Query: Cool, now Oc1ccc(OCCN2CCC(Cc3ccc(Cl)cc3)CC2)cc1 [Ex. 101, hydrochloride]
Result: 240 µM

Query: Cool, now N#Cc1ccc(OCCN2CCC(Cc3ccccc3)CC2)cc1 [Ex. 14]
Result: > 100 µM

Query: Cool, now O=[N+]([O-])c1ccccc1OCCN1CCC(Cc2ccccc2)CC1 [Ex. 60]
Result: > 100 µM

Query: Cool, now CC(COc1ccccc1)N1CCC(Cc2ccccc2)CC1 (centres unmarked) [Ex. 21, hydrobromide]
Result: > 100 µM

Query: Cool, now Cn1c(=O)[nH]c2ccc(OCCN3CCC(Cc4ccccc4)CC3)cc21 [Ex. 193]
Result: > 300 µM

Query: Cool, now Nc1ccc(OCCN2CCC(Cc3ccccc3)CC2)cc1N [Ex. 57]
Result: > 100 µM

Query: Cool, now OCCc1cccc(OCCN2CCC(Cc3ccccc3)CC2)c1 [Ex. 18]
Result: > 100 µM

Query: Cool, now Cc1ccc(CC2CCN(CCOc3ccccc3O)CC2)cc1 [Ex. 161, hydrochloride]
Result: 170 µM

Query: Cool, now ON=Cc1cccc(OCCN2CCC(Cc3ccccc3)CC2)c1 [Ex. 16]
Result: > 100 µM

Query: Cool, now Nc1c(OCCN2CCC(Cc3ccccc3)CC2)cccc1[N+](=O)[O-] [Ex. 52]
Result: > 100 µM

Query: Cool, now Clc1ccc(CC2CCN(CCOc3ccccc3)CC2)cc1 [Ex. 24, hydrochloride]
Result: 100 µM

Query: Cool, now OCCc1cccc(OCCN2CCC(Cc3ccc(Cl)cc3)CC2)c1 [Ex. 29]
Result: > 100 µM

Query: Cool, now O=[N+]([O-])c1ccc(OCCN2CCC(Cc3ccc(Cl)cc3)CC2)cc1 [Ex. 27, hydrobromide]
Result: > 100 µM

Query: Cool, now O=[N+]([O-])c1ccc(CC2CCN(CCCOc3ccccc3)CC2)cc1 [Ex. 37, hydrobromide]
Result: > 100 µM

Query: Cool, now Fc1cccc(OCCCN2CCC(Cc3ccccc3)CC2)c1 [Ex. 22, hydrobromide]
Result: > 100 µM

Query: Cool, now Oc1ccc(CCN2CCC(Cc3ccccc3)CC2)cc1 [Ex. 108, hydrochloride]
Result: > 300 µM

Query: Cool, now COc1ccccc1OCCN1CCC(Cc2ccccc2)CC1 [Ex. 68]
Result: > 100 µM

Query: Cool, now CC(CCOc1ccccc1)N1CCC(Cc2ccccc2)CC1 (centres unmarked) [Ex. 41, hydrochloride]
Result: > 100 µM

Query: Cool, now Br.Br.Nc1ccc(OCCN2CCC(Cc3ccc(Cl)cc3)CC2)cc1 [Ex. 28, dihydrobromide]
Result: > 100 µM

Query: Cool, now Cc1ccc(CC2CCN(CCOc3ccc(Cl)cc3)CC2)cc1.Cl [Ex. 168, hydrochloride]
Result: > 300 µM

Query: Cool, now c1ccc(OCCCCN2CCC(c3ccccc3)CC2)cc1 [Ex. 9, 1-(4-Phenoxybutyl)-4-phenylpiperidine]
Result: > 100 µM

Query: Cool, now COc1ccc(OCCN2CCC(Cc3ccccc3)CC2)cc1 [Ex. 70]
Result: > 100 µM

* * *

- tested.on: NMDA receptor subunits 1A/2B (Rattus norvegicus, UniProt P35439+Q00960)
- Construct: expressed in transfected cells; host or cells: Xenopus laevis oocytes (cRNA injection; clones from Dr. P. H. Seeburg)
- experiment: Electrophysiological assay at NMDA receptor subunits expressed in Xenopus oocytes, 1A/2B
- Format: cell-based
- experimental.parameters: Xenopus oocytes; glutamate 100 μm and glycine 1-100 μm; read-out: Subunits IC50, 1A/2B
Where a name gives a salt, the structure may show the parent alone.
For each entry below, report its pIC50 value.
Kindly note that pIC50 refers to -log10 of the concentration in mol/L and answer with the value alone.

Query: Which pIC50 reading was recorded for the compound Cl.Oc1ccc(OCCN2CCC(Cc3ccc(F)cc3)CC2)cc1F [Ex. 150, hydrochloride] ?
Result: 7.70

Query: Cool, now Cc1ccc(CC2CCN(CCOc3ccc(O)c(C)c3)CC2)c(F)c1 [Ex. 147, hydrochloride]
Result: 7.00

Query: Cool, now Clc1ccc(OCCN2CCC(Cc3ccccc3)CC2)cc1 [Ex. 11, hydrochloride]
Result: 5.00

Query: Cool, now O=[N+]([O-])c1ccc(CC2CCN(CCOc3ccc(F)cc3)CC2)cc1 [Ex. 36, hydrobromide]
Result: 4.66

Query: Cool, now O=c1[nH]c2ccc(OCCN3CCC(Cc4ccc(Cl)cc4)CC3)cc2[nH]1
Result: 7.60
